Provenance of the data: PubChem BioAssay AID1963851

Test system: 188146-221-R-J1-PDC complex spheroid viability
Assay: Anticancer human tumor 188146-221-R-J1-PDC patient-derived colon adenocarcinoma cell line growth inhibition [POLQ]
Details: second compound 10 µM; first compound 1 µM; active compounds read low
METRIC_NAME: viability, T/C (%)

1. CC1COCCN1c1cc(C2(S(C)(=N)=O)CC2)nc(-c2ccnc3[nH]ccc23)n1 (stereo unspecified) + COC1C(OC(N)=O)C(O)C(Oc2ccc3c(O)c(NC(=O)c4ccc(O)c(CC=C(C)C)c4)c(=O)oc3c2C)OC1(C)C
74.5
2. COc1cccc2c1C(=O)c1c(O)c3c(c(O)c1C2=O)CC(O)(C(=O)CO)CC3OC1CC(N)C(O)C(C)O1 (stereo unspecified) + Cc1cccc(N(C)C(=O)C2C(O)CCN2c2nc(C)cc(C(F)(F)F)c2C#N)c1
3.83
3. CC(C)n1c(=O)n(C)c2cnc3cc(F)c(-c4ccc(OCCCN5CCCCC5)nc4)cc3c21 + COC1C(OC(N)=O)C(O)C(Oc2ccc3c(O)c(NC(=O)c4ccc(O)c(CC=C(C)C)c4)c(=O)oc3c2C)OC1(C)C
93.7
4. C=CCn1c(=O)c2cnc(Nc3ccc(N4CCN(C)CC4)cc3)nc2n1-c1cccc(C(C)(C)O)n1 + COC1C(OC(N)=O)C(O)C(Oc2ccc3c(O)c(NC(=O)c4ccc(O)c(CC=C(C)C)c4)c(=O)oc3c2C)OC1(C)C
45.6
5. O=c1[nH]cc(F)c(=O)[nH]1 + Nc1ccc(C#CCN(C(=O)Cc2ncc(C(F)(F)F)cc2C(F)(F)F)c2ccc(F)cc2)nn1
54.6
6. CC1COCCN1c1cc(C2(S(C)(=N)=O)CC2)nc(-c2ccnc3[nH]ccc23)n1 (stereo unspecified) + Nc1ccc(C#CCN(C(=O)Cc2ncc(C(F)(F)F)cc2C(F)(F)F)c2ccc(F)cc2)nn1
90
7. Nc1ccn(C2OC(CO)C(O)C2(F)F)c(=O)n1 (stereo unspecified) + COC1C(OC(N)=O)C(O)C(Oc2ccc3c(O)c(NC(=O)c4ccc(O)c(CC=C(C)C)c4)c(=O)oc3c2C)OC1(C)C
12.4
8. C=CCn1c(=O)c2cnc(Nc3ccc(N4CCN(C)CC4)cc3)nc2n1-c1cccc(C(C)(C)O)n1 + Cc1cccc(N(C)C(=O)C2C(O)CCN2c2nc(C)cc(C(F)(F)F)c2C#N)c1
35.4
9. CCc1cc2c(N3CCc4c(cc(Cn5ccnc5)cc4-c4cn(C)nc4C(F)(F)F)C3=O)ccnc2c(OC)n1 + COC1C(OC(N)=O)C(O)C(Oc2ccc3c(O)c(NC(=O)c4ccc(O)c(CC=C(C)C)c4)c(=O)oc3c2C)OC1(C)C
85.5
10. O=c1[nH]cc(F)c(=O)[nH]1 + Cc1cccc(N(C)C(=O)C2C(O)CCN2c2nc(C)cc(C(F)(F)F)c2C#N)c1
51.7
11. COc1cccc2c1C(=O)c1c(O)c3c(c(O)c1C2=O)CC(O)(C(=O)CO)CC3OC1CC(N)C(O)C(C)O1 (stereo unspecified) + Nc1ccc(C#CCN(C(=O)Cc2ncc(C(F)(F)F)cc2C(F)(F)F)c2ccc(F)cc2)nn1
5.04
12. O=C(c1cc(Cc2n[nH]c(=O)c3ccccc23)ccc1F)N1CCN(C(=O)C2CC2)CC1 + Cc1cccc(N(C)C(=O)C2C(O)CCN2c2nc(C)cc(C(F)(F)F)c2C#N)c1
98.2
13. O=C(Nc1ccc(O)c(NS(=O)(=O)c2ccc(F)cc2)c1)c1ccc(-c2ccccc2)cc1 + COC1C(OC(N)=O)C(O)C(Oc2ccc3c(O)c(NC(=O)c4ccc(O)c(CC=C(C)C)c4)c(=O)oc3c2C)OC1(C)C
102
14. COc1cc2cc(C(=O)CCC(=O)O)sc2cc1OC + COC1C(OC(N)=O)C(O)C(Oc2ccc3c(O)c(NC(=O)c4ccc(O)c(CC=C(C)C)c4)c(=O)oc3c2C)OC1(C)C
101
15. COc1cc(C2c3cc4c(cc3C(OC3OC5COC(C)OC5C(O)C3O)C3COC(=O)C23)OCO4)cc(OC)c1O (stereo unspecified) + Nc1ccc(C#CCN(C(=O)Cc2ncc(C(F)(F)F)cc2C(F)(F)F)c2ccc(F)cc2)nn1
47.4
16. COc1cc2cc(C(=O)CCC(=O)O)sc2cc1OC + Nc1ccc(C#CCN(C(=O)Cc2ncc(C(F)(F)F)cc2C(F)(F)F)c2ccc(F)cc2)nn1
113
17. O=C(c1cc(Cc2n[nH]c(=O)c3ccccc23)ccc1F)N1CCN(C(=O)C2CC2)CC1 + Nc1ccc(C#CCN(C(=O)Cc2ncc(C(F)(F)F)cc2C(F)(F)F)c2ccc(F)cc2)nn1
89.8
18. CCc1cc2c(N3CCc4c(cc(Cn5ccnc5)cc4-c4cn(C)nc4C(F)(F)F)C3=O)ccnc2c(OC)n1 + Cc1cccc(N(C)C(=O)C2C(O)CCN2c2nc(C)cc(C(F)(F)F)c2C#N)c1
69.6
19. C=CC(=O)N1CCN(c2nc(=O)n(-c3c(C)ccnc3C(C)C)c3nc(-c4c(O)cccc4F)c(F)cc23)C(C)C1 (stereo unspecified) + Cc1cccc(N(C)C(=O)C2C(O)CCN2c2nc(C)cc(C(F)(F)F)c2C#N)c1
84.8
20. CC1COCCN1c1cc(-c2ccnn2C)c2ccnc(-c3ccn[nH]3)c2n1 (stereo unspecified) + Cc1cccc(N(C)C(=O)C2C(O)CCN2c2nc(C)cc(C(F)(F)F)c2C#N)c1
25.1
21. Nc1ccn(C2OC(CO)C(O)C2(F)F)c(=O)n1 (stereo unspecified) + Cc1cccc(N(C)C(=O)C2C(O)CCN2c2nc(C)cc(C(F)(F)F)c2C#N)c1
22

* * *

Quick reference for viability, T/C among some molecules
System: 188146-221-R-J1-PDC complex spheroid viability
Assay: Anticancer human tumor 188146-221-R-J1-PDC cell line growth inhibition [POLQ];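 note: spheroids exposed to compounds for seven days; 100% = DMSO vehicle control viability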
Details: second compound 0.0316 µM; first compound 3.16 µM; active compounds read low
METRIC_NAME: viability, T/C (%)

1) CCc1cc2c(N3CCc4c(cc(Cn5ccnc5)cc4-c4cn(C)nc4C(F)(F)F)C3=O)ccnc2c(OC)n1 + COC1C(OC(N)=O)C(O)C(Oc2ccc3c(O)c(NC(=O)c4ccc(O)c(CC=C(C)C)c4)c(=O)oc3c2C)OC1(C)C
67.6
2) CC1COCCN1c1cc(-c2ccnn2C)c2ccnc(-c3ccn[nH]3)c2n1 (stereo not given) + Cc1cccc(N(C)C(=O)C2C(O)CCN2c2nc(C)cc(C(F)(F)F)c2C#N)c1
21.6
3) O=c1[nH]cc(F)c(=O)[nH]1 + Cc1cccc(N(C)C(=O)C2C(O)CCN2c2nc(C)cc(C(F)(F)F)c2C#N)c1
50.8
4) COc1ccc([C@@H](O)c2cc(-c3ncnc4cc(N5CCOCC5)ccc34)c(F)cc2Cl)nn1 + Nc1ccc(C#CCN(C(=O)Cc2ncc(C(F)(F)F)cc2C(F)(F)F)c2ccc(F)cc2)nn1
65.1
5) O=C(Nc1ccc(O)c(NS(=O)(=O)c2ccc(F)cc2)c1)c1ccc(-c2ccccc2)cc1 + Cc1cccc(N(C)C(=O)C2C(O)CCN2c2nc(C)cc(C(F)(F)F)c2C#N)c1
100

* * *

System: 188146-221-R-J1-PDC complex spheroid viability
Experiment: Anticancer human tumor 188146-221-R-J1-PDC cell line growth inhibition [POLQ];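 note: spheroids exposed to compounds for seven days; 100% = DMSO vehicle control viability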
Conditions: second compound 0.0316 µM; first compound 3.16 µM; active compounds read low
Quick reference for viability, T/C among some molecules
METRIC_NAME: viability, T/C (%)

1. O=C(c1cc(Cc2n[nH]c(=O)c3ccccc23)ccc1F)N1CCN(C(=O)C2CC2)CC1 + Nc1ccc(C#CCN(C(=O)Cc2ncc(C(F)(F)F)cc2C(F)(F)F)c2ccc(F)cc2)nn1
93.6
2. CC(C)n1c(=O)n(C)c2cnc3cc(F)c(-c4ccc(OCCCN5CCCCC5)nc4)cc3c21 + Nc1ccc(C#CCN(C(=O)Cc2ncc(C(F)(F)F)cc2C(F)(F)F)c2ccc(F)cc2)nn1
83.6
3. CC(C)n1c(=O)n(C)c2cnc3cc(F)c(-c4ccc(OCCCN5CCCCC5)nc4)cc3c21 + COC1C(OC(N)=O)C(O)C(Oc2ccc3c(O)c(NC(=O)c4ccc(O)c(CC=C(C)C)c4)c(=O)oc3c2C)OC1(C)C
94.6

* * *

Test system: 188146-221-R-J1-PDC complex spheroid viability
Assay: Anticancer human tumor 188146-221-R-J1-PDC cell line growth inhibition [POLQ];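 note: spheroids exposed to compounds for seven days; 100% = DMSO vehicle control viability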
Details: second compound 0.316 µM; first compound 0.001 µM; active compounds read low
METRIC_NAME: viability, T/C (%)

1) CC[C@@]1(O)C(=O)OCc2c1cc1n(c2=O)Cc2cc3c(CN(C)C)c(O)ccc3nc2-1 + COC1C(OC(N)=O)C(O)C(Oc2ccc3c(O)c(NC(=O)c4ccc(O)c(CC=C(C)C)c4)c(=O)oc3c2C)OC1(C)C
95.9
2) Cn1ncnc1[C@H]1c2n[nH]c(=O)c3cc(F)cc(c23)N[C@@H]1c1ccc(F)cc1 + Cc1cccc(N(C)C(=O)C2C(O)CCN2c2nc(C)cc(C(F)(F)F)c2C#N)c1
104
3) Cn1ncnc1[C@H]1c2n[nH]c(=O)c3cc(F)cc(c23)N[C@@H]1c1ccc(F)cc1 + Nc1ccc(C#CCN(C(=O)Cc2ncc(C(F)(F)F)cc2C(F)(F)F)c2ccc(F)cc2)nn1
103
4) CC[C@@]1(O)C(=O)OCc2c1cc1n(c2=O)Cc2cc3c(CN(C)C)c(O)ccc3nc2-1 + Cc1cccc(N(C)C(=O)C2C(O)CCN2c2nc(C)cc(C(F)(F)F)c2C#N)c1
91.2
5) Cn1ncnc1[C@H]1c2n[nH]c(=O)c3cc(F)cc(c23)N[C@@H]1c1ccc(F)cc1 + COC1C(OC(N)=O)C(O)C(Oc2ccc3c(O)c(NC(=O)c4ccc(O)c(CC=C(C)C)c4)c(=O)oc3c2C)OC1(C)C
102
6) CC[C@@]1(O)C(=O)OCc2c1cc1n(c2=O)Cc2cc3c(CN(C)C)c(O)ccc3nc2-1 + Nc1ccc(C#CCN(C(=O)Cc2ncc(C(F)(F)F)cc2C(F)(F)F)c2ccc(F)cc2)nn1
88.4
